# Test system: Ia+ Langerhans cells
# assay method text: Ia+ Langerhans cell density after topical application to mouse ear
# Format: in vivo, C57-BL/6 mice
# measurement parameters: dose 0.50 Nanog., C 57 BL/6 mice, 4 batches
Where no end group is shown, it is not given here.
measured metric: Number of Ia+ cells per mm^2 of epidermis, Mean (cells per mm^2)
Express your answer in cells per mm^2, writing the number without its unit.

Look over these answered cases.
substance | measurement unit | quantitative readout
A-Arg-Lys-Asp-Val-Tyr-NH2 (RKDVY; not fully specified (N-terminus, C-terminus)) [ETF-XV, A not specified for the tested sample; b149 names acetic acid-Arg-Lys-Asp-Val-Tyr-NH2] | cells per mm^2 | 331.25
A-Pyr-Ala-Lys-Ser-Gln-Gly-Gly-Ser-Asn-NH2 (AKSQGGSN; not fully specified (N-terminus, C-terminus); printed as A-Pyr-Ala-Lys-Ser-Gln-Gly-Gly-Ser-Asn-NH2) [ETF-I, A of the tested sample not restated] | cells per mm^2 | 384.25
A-Arg-Lys-Asp-Val-NH2 (RKDV; not fully specified (N-terminus, C-terminus)) [ETF-XIX, A not specified for the tested sample] | cells per mm^2 | 393.00

Switching to the query record.
Per the record, Adipoyl-Ala-Lys-Ser-Gln-Gly-Gly-Ser-Asn-NH2 (AKSQGGSN-NH2; not fully specified (N-terminus)) [ETF-III, A of the tested sample not restated] has Number of Ia+ cells per mm^2 of epidermis, Mean of 363.75

---

# Tested on: Thy 1.2+ thymocytes of the epidermis
# assay method text: Thy 1.2+ epidermal cell density after topical application to mouse ear (immunofluorescence)
# Format: in vivo, C57-BL/6 mice
# measurement parameters: dose 1.00 Nanog., C 57 BL/6 mice
Where no end group is shown, it is not given here.
Measured Number of Thy 1.2+ cells per mm^2 of epidermis, batch 2 accompanies every entry in the list below.
Return type: number; implicit unit cells per mm^2.

A selection of reference data follows.
substance | quantitative readout
Adipoyl-Ala-Lys-Ser-Gln-Gly-Gly-Ser-Asn-NH2 (AKSQGGSN-NH2; not fully specified (N-terminus)) [ETF-III, A of the tested sample not restated] | 220
A-Pyr-Ala-Lys-Ser-Gln-Gly-Gly-Ser-Asn-NH2 (AKSQGGSN; not fully specified (N-terminus, C-terminus); printed as A-Pyr-Ala-Lys-Ser-Gln-Gly-Gly-Ser-Asn-NH2) [ETF-I, A of the tested sample not restated] | 210
A-Arg-Lys-Asp-Val-Tyr-NH2 (RKDVY; not fully specified (N-terminus, C-terminus)) [ETF-XV, A not specified for the tested sample; b149 names acetic acid-Arg-Lys-Asp-Val-Tyr-NH2] | 180

The substance A-Arg-Lys-Asp-Val-NH2 (RKDV; not fully specified (N-terminus, C-terminus)) [ETF-XIX, A not specified for the tested sample] showed Number of Thy 1.2+ cells per mm^2 of epidermis, batch 2 equal to 238

---

# System: Ia+ Langerhans cells
# assay method text: Ia+ Langerhans cell density after topical application to mouse ear
# Format: in vivo, C57-BL/6 mice
# measurement parameters: dose 1.00 Nanog., relative to PG controls
# Procedure: I--Experimental Samples--Code: ETF In solution in propylene glycol at a concentration of 10^-5 M/ml […] In the case of each epidermal sheet, the number of cells per mm^2 is determined using the peripheral regions of the same surface. […]
Where no end group is shown, it is not given here.
measured metric: Ia+ cells % (%)
Numeric answer only, unit % assumed.

substance | Ia+ cells % (%)
A-Arg-Lys-Asp-Val-NH2 (RKDV; not fully specified (N-terminus, C-terminus)) [ETF-XIX, A not specified for the tested sample] | 306
Adipoyl-Ala-Lys-Ser-Gln-Gly-Gly-Ser-Asn-NH2 (AKSQGGSN-NH2; not fully specified (N-terminus)) [ETF-III, A of the tested sample not restated] | 269
A-Pyr-Ala-Lys-Ser-Gln-Gly-Gly-Ser-Asn-NH2 (AKSQGGSN; not fully specified (N-terminus, C-terminus); printed as A-Pyr-Ala-Lys-Ser-Gln-Gly-Gly-Ser-Asn-NH2) [ETF-I, A of the tested sample not restated] | 286

Lab note: next substance to report on.
The substance listed as A-Arg-Lys-Asp-Val-Tyr-NH2 (RKDVY; not fully specified (N-terminus, C-terminus)) [ETF-XV, A not specified for the tested sample; b149 names acetic acid-Arg-Lys-Asp-Val-Tyr-NH2] has a reported Ia+ cells % of 243

---

Reported Thy 1.2+ cells % T values for the following substances.
# System: Thy 1.2+ thymocytes of the epidermis
# assay method text: Thy 1.2+ epidermal cell density after topical application to mouse ear (immunofluorescence)
# Format: in vivo, C57-BL/6 mice
# measurement parameters: dose 1.00 Nanog., relative to PG controls
Where no end group is shown, it is not given here.
Give the value, in units of %, as a plain number.

substance | assay target | measured metric | quantitative readout
A-Pyr-Ala-Lys-Ser-Gln-Gly-Gly-Ser-Asn-NH2 (AKSQGGSN; not fully specified (N-terminus, C-terminus); printed as A-Pyr-Ala-Lys-Ser-Gln-Gly-Gly-Ser-Asn-NH2) [ETF-I, A of the tested sample not restated] | Thy 1.2+ thymocytes of the epidermis | Thy 1.2+ cells % T | 143

GET /value?item= Adipoyl-Ala-Lys-Ser-Gln-Gly-Gly-Ser-Asn-NH2 (AKSQGGSN-NH2; not fully specified (N-terminus)) [ETF-III, A of the tested sample not restated] &field=Thy 1.2+ cells % T returns 140

// Thy 1.2+ cells % T lookup, substance = A-Arg-Lys-Asp-Val-Tyr-NH2 (RKDVY; not fully specified (N-terminus, C-terminus)) [ETF-XV, A not specified for the tested sample; b149 names acetic acid-Arg-Lys-Asp-Val-Tyr-NH2] , result: 117

substance A-Arg-Lys-Asp-Val-NH2 (RKDV; not fully specified (N-terminus, C-terminus)) [ETF-XIX, A not specified for the tested sample] , Thy 1.2+ cells % T observed: 161

---

# Test system: Thy 1.2+ thymocytes of the epidermis
# assay method text: Thy 1.2+ epidermal cell density after topical application to mouse ear (immunofluorescence)
# Format: in vivo, C57-BL/6 mice
# measurement parameters: dose 0.10 Nanog., C 57 BL/6 mice
Where no end group is shown, it is not given here.
measured metric: Number of Thy 1.2+ cells per mm^2 of epidermis, batch 4 (cells per mm^2)
# number only, unit cells per mm^2 dropped from output

substance | quantitative readout
Adipoyl-Ala-Lys-Ser-Gln-Gly-Gly-Ser-Asn-NH2 (AKSQGGSN-NH2; not fully specified (N-terminus)) [ETF-III, A of the tested sample not restated] | 176
A-Arg-Lys-Asp-Val-Tyr-NH2 (RKDVY; not fully specified (N-terminus, C-terminus)) [ETF-XV, A not specified for the tested sample; b149 names acetic acid-Arg-Lys-Asp-Val-Tyr-NH2] | 170
A-Arg-Lys-Asp-Val-NH2 (RKDV; not fully specified (N-terminus, C-terminus)) [ETF-XIX, A not specified for the tested sample] | 212

Summary for this substance, A-Pyr-Ala-Lys-Ser-Gln-Gly-Gly-Ser-Asn-NH2 (AKSQGGSN; not fully specified (N-terminus, C-terminus); printed as A-Pyr-Ala-Lys-Ser-Gln-Gly-Gly-Ser-Asn-NH2) [ETF-I, A of the tested sample not restated] : Number of Thy 1.2+ cells per mm^2 of epidermis, batch 4 is 207

---

Readings of Ia+ cells % for the listed substances
# System: Ia+ Langerhans cells
# assay method text: Ia+ Langerhans cell density after topical application to mouse ear
# Format: in vivo, C57-BL/6 mice
# measurement parameters: dose 0.50 Nanog., relative to PG controls
Where no end group is shown, it is not given here.
Value expressed in %; do not type the unit.

substance | measurement unit | Ia+ cells %
A-Arg-Lys-Asp-Val-NH2 (RKDV; not fully specified (N-terminus, C-terminus)) [ETF-XIX, A not specified for the tested sample] | % | 283

Value of measured Ia+ cells % for the entry A-Pyr-Ala-Lys-Ser-Gln-Gly-Gly-Ser-Asn-NH2 (AKSQGGSN; not fully specified (N-terminus, C-terminus); printed as A-Pyr-Ala-Lys-Ser-Gln-Gly-Gly-Ser-Asn-NH2) [ETF-I, A of the tested sample not restated] : 275

Recorded Ia+ cells % (substance Adipoyl-Ala-Lys-Ser-Gln-Gly-Gly-Ser-Asn-NH2 (AKSQGGSN-NH2; not fully specified (N-terminus)) [ETF-III, A of the tested sample not restated] ): 255

Ia+ cells % in this record for A-Arg-Lys-Asp-Val-Tyr-NH2 (RKDVY; not fully specified (N-terminus, C-terminus)) [ETF-XV, A not specified for the tested sample; b149 names acetic acid-Arg-Lys-Asp-Val-Tyr-NH2] : 223
